target: Avi-KRAS G12C (1-169) GppNHp/RAF1 RBD-3×FLAG (52-151) (Homo sapiens, UniProt P01116, G12C); construct: Avi-KRAS G12C (1-169) GppNHp; Avi (N); assay: Raf1 RBD-KRAS G12C-GppNHp disruption assay (protein:protein interaction HTRF)
Sequence (P01116 1-169 isoform P01116-2 G12C limits assumed): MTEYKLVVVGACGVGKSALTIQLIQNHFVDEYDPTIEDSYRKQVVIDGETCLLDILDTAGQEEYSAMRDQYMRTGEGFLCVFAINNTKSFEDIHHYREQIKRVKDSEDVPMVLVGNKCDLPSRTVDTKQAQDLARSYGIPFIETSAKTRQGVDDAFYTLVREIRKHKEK
property: IC50

Example entries begin here.
{"columns": ["molecule", "IC50"],
 "data": [
  ["C=CC(=O)N1CC[C@@H](N(C)c2nc(OC[C@@H]3C[C@@H](F)CN3CC)nc3c(F)c(-c4ccc(F)c5sc(N)c(C#N)c45)c(Cl)cc23)[C@H]1C", "500 to 5000 nM"],
  ["C=CC(=O)N1CC[C@@H](N(C)c2nc(OC[C@@H]3CCCN3C)nc3c(F)c(-c4ccc(F)c5sc(N)c(C#N)c45)c(Cl)cc23)[C@H]1C (atropisomer, axis not shown) [Compound 119]", "5000 to 20000 nM"],
  ["C=CC(=O)N1C[C@@H](C)N(c2nc(OC[C@@]34CCCN3C[C@H](F)C4)nc3c(F)c(-c4ccc(F)c5sc(N)c(C#N)c45)c(C(F)(F)F)cc23)C[C@@H]1C", "< 500 nM"],
  ["C=CC(=O)N1CC[C@@H](N(C)c2nc(OC[C@@]34CCCN3C[C@H](F)C4)nc3cc(-c4nc(N)cc(C)c4C(F)(F)F)c(F)cc23)[C@H]1C", "< 500 nM"]
]}

Which IC50 reading was recorded for the molecule C=CC(=O)N1CC[C@@H](N(C)c2nc(OC[C@@]34CCCN3C[C@H](F)C4)nc3c(F)c(-c4ccc(F)c5sc(N)c(C#N)c45)ccc23)[C@H]1CC ?
< 500 nM
